B1: Osa-1-4 twister ribozyme (parent)
chain: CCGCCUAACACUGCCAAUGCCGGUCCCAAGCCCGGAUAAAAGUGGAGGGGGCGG

Variants of: B1
Experiment: self-cleavage, relative activity (ratio to wild type); higher = more cleavage; co-transcriptional
Would you please tag the item Y when its self-cleavage is 0.06 or above, and N when it is below?

> print(dat)
                              sequence.code  class
1  CCGCCUAACAUUGCCAAUGCCAGUCCCAAGCCCGGAUAAAAGUGGAGGGGGCGG      Y
2  CCGCCUUCCACUGCCAAUGCCGGUCCCAAGCCCGGAUAAAAGUGGAGGGGGCGG      N
3  CCGCCUAACACUGCCAAUGCCGGUCCCAAGCCCGGAUAAAACUGGAGGGUGCGG      Y
4  CCGCCUAACAAUGCCAAUGCCGGUCCCAAGCCCGUAUAAAAGUGGAGGGGGCGG      Y
5  CCGCCUAACACUGCCAAUUCCGGUCCCAAGCCCGGAUAAAAGUGGAGGAGGCGG      N
6  CCGCCUAACACUGCCAAUGCCGGUCCCAAGCCCGGAAAAAUGUGGAGGGGGCGG      Y
7  CCGCCUAACACUGCCAAGGCCGGUCCCAAGCCCGGAUAAAAGUGGAGGGGGCGU      Y
8  CCGCCUAACACUGCCAAUGCCGGUCCCAAUCCCGGAUAAAAGUGGAGGGGGGGG      N

In plain terms: is recorded self-cleavage at least 0.06 for CCGCCUAACACUGCCAAUGCCGGUCCCAAGGUCGGAUAAAAGUGGAGGGGGCGG ?
N
